Values compiled from paper PMC9320114.

# system tested: human butyrylcholinesterase (hBChE) (Homo sapiens)
# Sequence (P06276 29-602): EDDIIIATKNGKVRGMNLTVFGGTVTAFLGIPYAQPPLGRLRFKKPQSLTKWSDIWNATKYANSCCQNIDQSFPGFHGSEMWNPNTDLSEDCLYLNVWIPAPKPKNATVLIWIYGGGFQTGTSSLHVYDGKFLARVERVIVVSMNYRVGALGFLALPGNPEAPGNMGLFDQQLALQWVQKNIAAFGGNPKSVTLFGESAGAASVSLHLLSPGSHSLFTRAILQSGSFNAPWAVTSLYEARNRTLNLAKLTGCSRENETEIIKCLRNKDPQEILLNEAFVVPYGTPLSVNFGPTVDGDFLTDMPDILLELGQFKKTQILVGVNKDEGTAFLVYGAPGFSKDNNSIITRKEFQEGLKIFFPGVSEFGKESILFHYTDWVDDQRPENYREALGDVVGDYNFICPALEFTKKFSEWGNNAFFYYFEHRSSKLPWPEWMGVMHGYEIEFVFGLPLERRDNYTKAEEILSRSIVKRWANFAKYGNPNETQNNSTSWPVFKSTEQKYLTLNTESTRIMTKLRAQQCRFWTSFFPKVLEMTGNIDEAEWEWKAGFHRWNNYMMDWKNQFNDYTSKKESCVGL
# experimental protocol: biochemical
# Format: biochemical
# condition label: Table 4; IC50 ± SEM; read-out: hBChE IC50
pIC50: −log10 of the molar value.
Respond with Condition met for pIC50 values of 6 and above, Condition not met for values below.

Hello, I need to know if `OCC1=C(c2ccc(F)cc2)CCN(CCCCc2c[nH]c3ccccc23)C1` has measured pIC50 not below 6. Thanks! Condition met

Hello, I need to know if `N#Cc1ccc2[nH]cc(CCCCN3CC=C(c4ccc5c(c4)OCC5)CC3)c2c1` has measured pIC50 not below 6. Thanks! Condition not met

Hello, I need to know if `Fc1ccc2[nH]cc(CCCCN3CC=C(c4ccccc4)CC3)c2c1` has measured pIC50 not below 6. Thanks! Condition met

Hello, I need to know if `C1=C(c2ccccc2)CCN(CCCCc2c[nH]c3ccccc23)C1` has measured pIC50 not below 6. Thanks! Condition met

Hello, I need to know if `CC(C)c1ccc2[nH]cc(CCCCN3CC=C(c4ccccc4)CC3)c2c1` has measured pIC50 not below 6. Thanks! Condition met

Hello, I need to know if `COc1ccc2[nH]cc(CCCCN3CCc4c([nH]c5ccc(OC)cc45)C3)c2c1` has measured pIC50 not below 6. Thanks! Condition not met

Hello, I need to know if `COC(=O)CNC(=O)c1ccc2[nH]cc(CCCCN3CC=C(c4ccccc4)CC3)c2c1` has measured pIC50 not below 6. Thanks! Condition met

Hello, I need to know if `C1=C(c2cccc3ccccc23)CCN(CCCCc2c[nH]c3ccccc23)C1` has measured pIC50 not below 6. Thanks! Condition met

Hello, I need to know if `O=C(O)c1cccc2[nH]cc(CCCCN3CC=C(c4ccccc4)CC3)c12` has measured pIC50 not below 6. Thanks! Condition not met

Hello, I need to know if `Oc1ccc2c(CCCCN3CC=C(c4ccccc4)CC3)c[nH]c2c1` has measured pIC50 not below 6. Thanks! Condition met
